Source of measurements: PubChem BioAssay (NCI)

Catalogue of growth inhibition values
PROCEDURE_TEXT: NCI Yeast Anticancer Drug Screen. Data for the mec2-1 strain (AID 157)
CONDITION_LABEL: S. cerevisiae mec2-1 strain, at 50.0 µM, active compounds read high
This is part of a sample that, as a whole, favours compounds with a hit. Of some 79,000 tested, about 15% had one in any assay.
Give the quantity in %, number only.

Examples with their reported growth inhibition follow.
N#Cc1nc(NC(=O)c2ccccc2C(=O)O)c(C#N)[nH]1 :: 14.1
CCc1cc2c(c3c1CCCC3=O)CC1(C2)Cc2cc(CC)c3c(c2C1)C(=O)CCC3 :: -9.9
COc1nc2nccc-2c2occn12 :: -11.2
O=C1O[C@@H](c2ccccc2)C[C@@H]1CN1CCOCC1 :: 13.7

query: growth inhibition lookup needed for O=C1OC(c2ccccc2)=CC1Cc1ccccc1 (configuration not stated) , thanks.
result: -2.35

query: Field request: growth inhibition | item: O=C/C=C/c1ccc2c(c1)OC(CO)C(c1ccc(O)c(O)c1)O2 (configuration not stated)
result: 2.2

query: For the compound CCn1c(O)c(C=Nc2ccccc2)s/c1=N/Nc1nc(C)c(C(C)=O)s1 , what growth inhibition is on record?
result: 5.25

query: # input compound: CCCCN(CCCC)CC1OCCO1 ; wanted: its growth inhibition
result: -0.5

query: Give the measured growth inhibition of O=C1OC(c2ccccc2)(c2ccc(Cl)cc2)CC1/C=C(\c1ccccc1)c1ccc(Cl)cc1 (configuration not stated) .
result: 6.65

query: What value of growth inhibition has been recorded for this entry: CC(C)CC1OCC(C)(C)C(C(C)C)O1 (configuration not stated)
result: -6.1

query: Entry under review: O=C1C=C(c2ccccc2)C(=O)C(c2ccccc2)=C1c1ccccc1 . Reported growth inhibition?
result: 88.2

query: // growth inhibition lookup, key: SCCNCc1ccccn1
result: -36.1

====

PROCEDURE_TEXT: NCI Yeast Anticancer Drug Screen. Data for the cln2 rad14 strain (AID 165);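 further: 0% = growth equal to vehicle treated cultures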
CONDITION_LABEL: S. cerevisiae cln2 rad14 strain, at 50.0 µM, active compounds read high
About 79,000 compounds went through this panel and 15% of them were active in at least one assay; those are over-represented in the sample as a whole. *1 amine or outer side, *2 acyl side, *3 side chain or, on linkers, in order; H or OH if unused. Where a SMILES comes first, the peptide text is derived from it. Bridges are numbered along the chain shown (N, C = ends). Roman numbers before positions name the chains, in order. [ ]: non-standard residue; d: D form. Actinocin(9to1) = Cc1c2oc3c(C)ccc(C(=O)[*:1])c3nc-2c(C(=O)[*:2])c(N)c1=O; X13 = O=C1CC(C(=O)[*:2])N([*:1])C1; NMeV = CN[CH](C(=O)O)C(C)C; Sar = CNCC(=O)O
VALUE_TYPE: growth inhibition (%)
Provide the reading as a plain figure in %.

O=C(O)CCSC1=NCCN1 :: 16.6
Nc1ccc(S(=O)(=O)CCO)cc1 :: 4.45
CCOC(=O)C(CCC#N)(NC(C)=O)C(=O)OCC :: -25.3
Cc1c2oc3c(C)ccc(C(=O)NC4C(=O)NC(C(C)C)C(=O)N5CC(=O)CC5C(=O)N(C)CC(=O)N(C)C(C(C)C)C(=O)OC4C)c3nc-2c(C(=O)NC2C(=O)NC(C(C)C)C(=O)N3CC(=O)CC3C(=O)N(C)CC(=O)N(C)C(C(C)C)C(=O)OC2C)c(N)c1=O (stereo not drawn) (I: TV[X13][Sar][NMeV] / II: TV[X13][Sar][NMeV]; ester I:1-I:C, II:1-II:C; linker I:N-II:N via Actinocin(9to1); configuration not given here) :: 52.4
c1ccc(-c2ccc(-c3nnc(-c4ccc(-c5ccccc5)cc4)o3)cc2)cc1 :: -35.6

Pending molecule:
query: Name the recorded growth inhibition for Cc1c(O)c(=O)ccn1C1OC(CO)C(O)C1O (stereo not drawn) .
result: -2.9
